Field: GI50. Provide a value for each of the compounds that follow.
Test system: DLD-1
Assay: NCI tumour cell line growth inhibition, 48 h
Calls of active or inactive are those of the source. Cut-off read from the data, not from the text of the source: active = GI50 up to about 1.1 µM and inactive = higher.

Query block: Return reported GI50; argument: `COC(=O)/C([Se]c1c(C)cc(C)cc1C)=C(\[Se]c1c(C)cc(C)cc1C)C(=O)OC`
Result block: > 100 µM (inactive)

Query block: Return reported GI50; argument: CCCCC(N)CSSCC(N)CCCC (stereo not drawn)
Result block: 21.6 µM (inactive)

Query block: Return reported GI50; argument: O=C1C(=O)N(C2C3CC4CC(C3)CC2C4)C(=O)C(=O)C1c1nc2ccccc2o1 (stereo not drawn)
Result block: 37.3 µM (inactive)
